- Tested on: MDA-MB-468 breast
- experiment-description: NCI-60 one-dose screen, 48 h
- test-conditions: 10 µM unless noted
About 83,000 compounds went through this panel and 20% of them were active in at least one assay; those are over-represented in the sample as a whole. Calls of active or inactive are those of the source. How the source made its calls: active means growth percent below 10; inactive means the rest.
Lab note: assign the record to one of active, inactive

O=C(CCCCC(=O)Oc1c(Cl)cc(Cl)cc1[N+](=O)[O-])Oc1c(Cl)cc(Cl)cc1[N+](=O)[O-]    inactive
Cc1cn(-c2cccc(NC(=O)c3ccc(C)c(Nc4nccc(-c5cccnc5)n4)c3)c2)cn1    active
O=C1NC(=O)c2cc([N+](=O)[O-])ccc21    inactive

Prompt: Fill in: this test's call for O=C(Nc1cccnc1)c1ccc2ccc3ccc(C(=O)Nc4cccnc4)nc3c2n1 is ___
Response: active

====

- Test system: MDA-MB-468 breast
- experiment-description: NCI-60 one-dose screen, 48 h
- test-conditions: 10 µM unless noted
This is part of a sample that, as a whole, favours compounds with a hit. Of some 83,000 tested, about 20% had one in any assay. Calls of active or inactive are those of the source. The calls were made as follows: active = growth percent below 10; inactive = the rest.
Lab note: assign the record to one of YES for active, NO for inactive

Cc1nn(-c2ccccc2)c(-n2ccnc2)c1/C=N/Nc1nc(-c2ccc(Cl)c(Cl)c2)cs1    YES

Prompt: Fill in: this test's call for Cc1ccc(S(=O)(=O)N2CCc3ccc(O)c4c3C2CCc2ccccc2-4)cc1 (stereo unspecified) is ___
Response: NO

Prompt: Fill in: this test's call for COc1ccc(C2CC(c3ccc(Nc4nc(NCCO)nc(N5CCOCC5)n4)cc3)=Nc3c(N)nc(N)nc3N2)cc1 (stereo unspecified) is ___
Response: NO

====

- System: MDA-MB-468 breast
- experiment-description: NCI-60 one-dose screen, 48 h
- test-conditions: 10 µM unless noted
The panel holds about 83,000 compounds, 20% with a hit somewhere; the sample as a whole holds those more often. The source made the active and inactive calls. The calls were made as follows: active = growth percent below 10; inactive = the rest.
Lab note: assign the record to one of T = active, F = inactive

Example entries and their recorded answers appear below.
COc1cc(C(C)n2cc(-c3ccccc3)nn2)ccc1OC1CCCC1 (stereo unspecified)    T
COc1ccc(-c2cnc(NC(=O)CCCCCCNC(=O)C(O)(O)C(F)(F)F)s2)cc1    T
O=C(Nc1nc2c(s1)CCc1c-2c(Br)n(Cc2ccccc2)c1Br)c1ccccc1    F
CC(C)C[C@@H]1N[C@@]2(C(=O)Nc3ccccc32)[C@@H](c2ccc(F)cc2)[C@@H]1C(=O)c1ccc(O)cc1    F

Prompt: Fill in: this test's call for COc1ccccc1CNCCCN1C(=O)c2ccc3c4c(ccc(c24)C1=O)C(=O)N(CCCNCCCCNCCCN)C3=O is ___
Response: T

Prompt: Fill in: this test's call for CN1CCN(Cc2ccc(NC(=O)c3cncc(C#Cc4cnc5ccc(Cl)nn45)c3)cc2C(F)(F)F)CC1 is ___
Response: T

====

- Tested on: MDA-MB-468 breast
- experiment-description: NCI-60 one-dose screen, 48 h (100 = growth as untreated, 0 = no growth, -100 = all killed)
- test-conditions: 10 µM unless noted
About 83,000 compounds went through this panel and 20% of them were active in at least one assay; those are over-represented in the sample as a whole.
endpoint-label: growth (%)
The reply should contain only the number, in %.

Field: example entries. Status: answers known.
N#Cc1nc(-c2ccc(Cl)cc2)oc1S(=O)(=O)N1CCN(c2ccc(F)cc2)CC1    105
CCOC(=O)/C=C1\SC(=Nc2ccc(C#N)cc2)N(CCN2C(=O)/C(=C/C(=O)OCC)SC2=Nc2ccc(C#N)cc2)C1=O    55.3
O=c1cn[nH]c2ccc(Br)cc12    109
O=C(/C=C/c1ccccc1Cl)c1cccc(OCCCCOc2cccc(C(=O)/C=C/c3ccccc3Cl)c2)c1    110
CSc1nc(N)c2[nH]c(-c3cc4ccccc4[nH]c3=O)nc2n1    1.87
CCCCNC(=O)Oc1ccc(/C(=C(\C)c2ccccc2)c2ccc(OCCN3CCCCC3)cc2)cc1    66.8
Cc1ccncc1NC=O    107
COc1ccc(/C=N/Nc2nc(N/N=C/c3ccc(OC)cc3O)nc(N3CCOCC3)n2)c(O)c1    63.1
COc1cccc(-c2nn(-c3ccccc3)cc2-c2ccnc(N3CCN(C(=O)c4ccccc4)CC3)c2)c1    82.3
C[C@@H](O)[C@H]1C(=O)N2C(C(=O)O)=C(SCCN=CN)C[C@H]12    -48.1

Prompt: Indicate the recorded growth value for this compound: COc1ccc(CN2C(=O)/C(=C\c3cc(OC)c(OC)c(OC)c3)c3cc(OC)ccc32)cc1
Response: 14

Prompt: Indicate the recorded growth value for this compound: OCCNC(=S)Nc1ccc(-c2nc(N3C[C@H]4CC[C@@H](C3)O4)c3cccn3n2)cc1
Response: -24.6
